- SYSTEM_UNDER_TEST: GV sPLA2 (Homo sapiens)
- Sequence (P39877 21-138): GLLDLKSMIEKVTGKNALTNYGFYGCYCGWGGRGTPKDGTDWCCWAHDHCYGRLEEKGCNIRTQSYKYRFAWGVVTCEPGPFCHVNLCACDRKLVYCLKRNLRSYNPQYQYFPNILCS
- EXPERIMENTAL_PROTOCOL: GV sPLA2 activity assay
- Format: biochemical
- CONDITIONS_USED: read-out: sPLA2 inh., percent inhibition
Hi there, I'd appreciate the recorded inhibition at 0.091 mole fraction for every entry that follows.
I only need the number, in %, no unit after it.

Quick check: inhibition at 0.091 mole fraction on GV sPLA2 (Homo sapiens), item CCC[C@@H](CCCCC(=O)OCC)NC(=O)C(=O)CC [AX065] ? 23.2

Quick check: inhibition at 0.091 mole fraction on GV sPLA2 (Homo sapiens), item CCOC(=O)CCCNC(=O)C(=O)CCc1ccc(OCC)cc1 [AX090] ? 51.7

Quick check: inhibition at 0.091 mole fraction on GV sPLA2 (Homo sapiens), item CCC(=O)C(=O)NCCCC(=O)OCc1ccccc1 [AX116] ? 57.5

---

- SYSTEM_UNDER_TEST: Group IVA cPLA2 (GIVA PLA2) (Homo sapiens)
- Sequence (P47712 whole entry): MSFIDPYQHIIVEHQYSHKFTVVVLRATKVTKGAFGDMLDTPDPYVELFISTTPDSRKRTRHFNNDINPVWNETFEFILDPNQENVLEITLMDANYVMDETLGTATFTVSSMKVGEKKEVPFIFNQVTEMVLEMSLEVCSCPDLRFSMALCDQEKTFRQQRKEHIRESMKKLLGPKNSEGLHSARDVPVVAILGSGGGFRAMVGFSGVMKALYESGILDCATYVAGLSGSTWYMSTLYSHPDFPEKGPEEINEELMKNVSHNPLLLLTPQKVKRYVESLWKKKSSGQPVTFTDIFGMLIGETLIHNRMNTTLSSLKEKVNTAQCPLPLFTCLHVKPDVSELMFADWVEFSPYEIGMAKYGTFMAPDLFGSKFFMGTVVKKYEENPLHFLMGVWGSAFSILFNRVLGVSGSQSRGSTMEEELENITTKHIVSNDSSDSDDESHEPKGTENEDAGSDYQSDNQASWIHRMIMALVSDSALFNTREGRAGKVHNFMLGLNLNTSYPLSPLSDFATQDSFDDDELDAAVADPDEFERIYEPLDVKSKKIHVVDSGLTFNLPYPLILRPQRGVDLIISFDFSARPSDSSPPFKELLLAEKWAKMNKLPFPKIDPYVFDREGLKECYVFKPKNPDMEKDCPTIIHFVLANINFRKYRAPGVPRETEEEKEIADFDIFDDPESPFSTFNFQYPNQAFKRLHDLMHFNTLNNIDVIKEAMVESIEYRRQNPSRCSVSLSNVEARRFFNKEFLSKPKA
- EXPERIMENTAL_PROTOCOL: In vitro Group IVA cPLA2 mixed micelle assay
- Type: biochemical
- CONDITIONS_USED: at 0.091 mole fraction; read-out: cPLA2 inh, percent inhibition (converted)
Lab note: compare inhibition at 0.091 mole fraction against 50%. Equal or greater, write met. Smaller, write not met.

Hi, just wondering whether CCC[C@@H](CCCCC(=O)OCC)NC(=O)C(=O)CC [AX065] shows inhibition at 0.091 mole fraction of 50% or higher. met

Hi, just wondering whether C=CCOC(=O)CCCNC(=O)C(=O)CC [AX126] shows inhibition at 0.091 mole fraction of 50% or higher. met

Hi, just wondering whether CCC(=O)C(=O)NCCCC(=O)OCc1ccccc1 [AX116] shows inhibition at 0.091 mole fraction of 50% or higher. not met

Hi, just wondering whether CCCC[C@@H](COCC(=O)OC(C)(C)C)NC(=O)C(=O)CC [AX122] shows inhibition at 0.091 mole fraction of 50% or higher. not met

Hi, just wondering whether CCC(=O)C(=O)NCCC(=O)OC(C)(C)C [AX113] shows inhibition at 0.091 mole fraction of 50% or higher. met

Hi, just wondering whether CCOC(=O)CCNC(=O)C(=O)CC [AX104] shows inhibition at 0.091 mole fraction of 50% or higher. not met

Hi, just wondering whether CCC(=O)C(=O)NCCCCC(=O)OC(C)(C)C [AX105] shows inhibition at 0.091 mole fraction of 50% or higher. met

Hi, just wondering whether CCCCC(=O)CCCNC(=O)C(=O)CC [AX082] shows inhibition at 0.091 mole fraction of 50% or higher. not met

Hi, just wondering whether CCOC(=O)CNC(=O)C(=O)CC [AX114] shows inhibition at 0.091 mole fraction of 50% or higher. met

Hi, just wondering whether CC/C=C\CC(=O)C(=O)NCCCC(=O)OCC [AX110] shows inhibition at 0.091 mole fraction of 50% or higher. met

Hi, just wondering whether CCCC[C@H](NC(=O)C(=O)CC)C(=O)NCC(=O)OC(C)(C)C [AX121] shows inhibition at 0.091 mole fraction of 50% or higher. met

Hi, just wondering whether CCC(=O)C(=O)NCC(=O)OC(C)(C)C [AX111] shows inhibition at 0.091 mole fraction of 50% or higher. met

Hi, just wondering whether CCOC(=O)CCCCNC(=O)C(=O)CC [AX102] shows inhibition at 0.091 mole fraction of 50% or higher. not met

Hi, just wondering whether CCC[C@@H](COCC(=O)OCC)NC(=O)C(=O)CC [AX128] shows inhibition at 0.091 mole fraction of 50% or higher. met

Hi, just wondering whether CCC[C@H](NC(=O)C(=O)CC)C(=O)NCC(=O)OCC [AX127] shows inhibition at 0.091 mole fraction of 50% or higher. met

Origin of values: patent US20080319065A1
